Biological target: Vascular endothelial growth factor receptor 2 (Homo sapiens)
Assay: Inhibition of VEGFR2 glycosylation in human HUVEC cells at 2 uM after 24 hrs by Western blot analysis
Format: cell-based
The source made the active and inactive calls. The rule behind the calls is not given here.
Can you answer with just one of these options? True = active, False = inactive

Solved cases below.
# Chemical String, Label Class
records = [
    ("CC[C@H](C)n1ncn(-c2ccc(N3CCN(c4ccc(OC[C@@H]5CO[C@](Cn6cncn6)(c6ccc(Cl)cc6Cl)O5)cc4)CC3)cc2)c1=O", "True"),
    ("CC1(CCn2ncn(-c3ccc(N4CCN(c5ccc(OC[C@@H]6CO[C@@](Cn7cncn7)(c7ccc(Cl)cc7Cl)O6)cc5)CC4)cc3)c2=O)N=N1", "True"),
    ("CCn1ncn(-c2ccc(N3CCN(c4ccc(OC[C@@H]5CO[C@@](Cn6cncn6)(c6ccc(Cl)cc6Cl)O5)cc4)CC3)cc2)c1=O", "False"),
    ("N#CCCCCCn1ncn(-c2ccc(N3CCN(c4ccc(OC[C@@H]5CO[C@@](Cn6cncn6)(c6ccc(Cl)cc6Cl)O5)cc4)CC3)cc2)c1=O", "True"),
    ("CCC#CCCn1ncn(-c2ccc(N3CCN(c4ccc(OC[C@@H]5CO[C@@](Cn6cncn6)(c6ccc(Cl)cc6Cl)O5)cc4)CC3)cc2)c1=O", "False"),
]

Please find the next compound below.
**Query** In this assay, the call recorded for O=c1[nH]ncn1-c1ccc(N2CCN(c3ccc(OC[C@@H]4CO[C@@](Cn5cncn5)(c5ccc(Cl)cc5Cl)O4)cc3)CC2)cc1 was what?
**Result** False
